# credit: paper PMC3817407

tested_system: T1, ECF17_1691
T1 chain: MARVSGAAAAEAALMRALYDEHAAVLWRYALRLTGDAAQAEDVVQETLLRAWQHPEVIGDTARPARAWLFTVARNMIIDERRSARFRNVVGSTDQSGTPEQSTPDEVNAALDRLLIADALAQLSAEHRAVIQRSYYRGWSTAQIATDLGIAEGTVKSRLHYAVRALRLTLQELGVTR
experimental_readout: fold repression
Write the value as a bare number.

-- ask For the binder AS37_2513 (protein) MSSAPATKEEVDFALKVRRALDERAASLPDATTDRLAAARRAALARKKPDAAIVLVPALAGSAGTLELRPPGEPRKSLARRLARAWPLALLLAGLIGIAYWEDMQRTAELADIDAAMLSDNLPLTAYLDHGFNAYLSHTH , what fold repression is on record?
-- reply 4.17

-- ask Now the binder AS33_375 (protein) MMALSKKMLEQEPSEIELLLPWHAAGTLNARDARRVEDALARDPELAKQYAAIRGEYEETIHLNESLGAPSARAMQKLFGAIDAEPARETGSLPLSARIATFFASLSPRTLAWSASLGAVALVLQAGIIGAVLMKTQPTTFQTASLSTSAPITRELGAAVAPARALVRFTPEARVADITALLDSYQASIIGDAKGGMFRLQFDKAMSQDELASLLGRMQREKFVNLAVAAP
-- reply 3.94

-- ask Now the binder AS03_1244 (protein) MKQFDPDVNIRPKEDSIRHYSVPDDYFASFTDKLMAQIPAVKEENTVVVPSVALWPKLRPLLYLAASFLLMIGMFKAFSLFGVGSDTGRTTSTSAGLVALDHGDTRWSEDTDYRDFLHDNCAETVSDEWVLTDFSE
-- reply 1.44

-- ask Now the binder AS14_1324 (protein) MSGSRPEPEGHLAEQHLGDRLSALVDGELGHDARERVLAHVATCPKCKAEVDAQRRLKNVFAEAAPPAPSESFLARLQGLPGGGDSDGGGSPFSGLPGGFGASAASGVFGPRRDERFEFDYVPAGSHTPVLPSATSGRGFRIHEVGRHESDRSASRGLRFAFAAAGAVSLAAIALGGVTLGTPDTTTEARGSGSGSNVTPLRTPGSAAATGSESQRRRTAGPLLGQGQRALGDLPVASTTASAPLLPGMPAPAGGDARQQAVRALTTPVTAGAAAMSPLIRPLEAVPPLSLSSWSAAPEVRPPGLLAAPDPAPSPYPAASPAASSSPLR
-- reply 4.81
